Catalogue of inhibition at 0.25 h, 10 µM readings, one per entry.
Molecular target: CYP2C9 (Homo sapiens)
Sequence (P11712 whole entry): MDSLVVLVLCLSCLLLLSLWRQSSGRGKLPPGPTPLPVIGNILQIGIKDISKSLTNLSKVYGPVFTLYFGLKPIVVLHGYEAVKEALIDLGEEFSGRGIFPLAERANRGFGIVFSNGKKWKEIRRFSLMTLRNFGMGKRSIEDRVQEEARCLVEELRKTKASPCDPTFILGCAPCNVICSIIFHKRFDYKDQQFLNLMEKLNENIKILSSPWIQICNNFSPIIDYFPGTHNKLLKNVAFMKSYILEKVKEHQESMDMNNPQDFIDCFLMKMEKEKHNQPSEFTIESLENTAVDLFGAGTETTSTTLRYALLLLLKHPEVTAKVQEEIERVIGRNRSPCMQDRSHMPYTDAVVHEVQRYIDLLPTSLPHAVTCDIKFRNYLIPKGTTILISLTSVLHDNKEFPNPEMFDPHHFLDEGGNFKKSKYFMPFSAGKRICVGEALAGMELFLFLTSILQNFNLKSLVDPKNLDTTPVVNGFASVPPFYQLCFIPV
Assay: Inhibition of human CYP2C9 at 10 uM after 15 mins
Assay type: ADME
quantityName: inhibition at 0.25 h, 10 µM (%)

Cc1ncn(-c2ccc(Nc3nccc(-c4cccc(N5CCOCC5)c4)n3)cc2)n1: 43
Fc1cc(-c2ccnc(Nc3ccc(-n4cnc(N5CCOCC5)n4)cc3)n2)cc(N2CCOCC2)c1: 75
Cn1nnc(-c2ccc(Nc3nccc(-c4cc(C#N)cc(N5CCOCC5)c4)n3)cc2)n1: 7
N#Cc1cc(-c2ccnc(Nc3ccc(-n4cnc(-c5ccccn5)n4)cc3)n2)cc(N2CCOCC2)c1: -2

====

Target: CYP1A2 (Homo sapiens)
Sequence (P05177 whole entry): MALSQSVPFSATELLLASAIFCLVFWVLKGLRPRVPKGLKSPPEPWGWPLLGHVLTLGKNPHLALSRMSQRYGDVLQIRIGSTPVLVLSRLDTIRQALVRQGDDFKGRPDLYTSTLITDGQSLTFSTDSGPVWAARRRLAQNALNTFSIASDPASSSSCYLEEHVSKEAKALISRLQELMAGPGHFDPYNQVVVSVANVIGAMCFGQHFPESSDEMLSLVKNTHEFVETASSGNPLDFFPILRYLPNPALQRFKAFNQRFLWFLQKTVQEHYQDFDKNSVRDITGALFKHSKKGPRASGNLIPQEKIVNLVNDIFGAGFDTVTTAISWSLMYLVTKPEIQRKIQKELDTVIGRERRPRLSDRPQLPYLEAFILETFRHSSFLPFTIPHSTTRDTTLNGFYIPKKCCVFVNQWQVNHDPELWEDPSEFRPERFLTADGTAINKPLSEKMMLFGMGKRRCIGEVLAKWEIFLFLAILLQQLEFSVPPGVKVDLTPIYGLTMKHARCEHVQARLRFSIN
Assay: Inhibition of human CYP1A2 at 10 uM after 15 mins
Assay type: ADME
Catalogue of inhibition at 0.25 h, 10 µM readings, one per entry.
quantityName: inhibition at 0.25 h, 10 µM (%)

Fc1cc(-c2ccnc(Nc3ccc(-n4cnc(N5CCOCC5)n4)cc3)n2)cc(N2CCOCC2)c1: 70
Cc1ncn(-c2ccc(Nc3nccc(-c4cccc(N5CCOCC5)c4)n3)cc2)n1: 39
N#Cc1cc(-c2ccnc(Nc3ccc(-n4cnc(-c5ccccn5)n4)cc3)n2)cc(N2CCOCC2)c1: 15
Cn1nnc(-c2ccc(Nc3nccc(-c4cc(C#N)cc(N5CCOCC5)c4)n3)cc2)n1: -1

====

Test system: Liver microsomes
Assay: Metabolic stability in rat liver microsomes at 1 uM by LC-MS/MS analysis
Format: ADME, Microsome
quantityName: Stability (min)

N#Cc1cc(-c2ccnc(Nc3ccc(-n4cnc(-c5ccccn5)n4)cc3)n2)cc(N2CCOCC2)c1: 47
Fc1cc(-c2ccnc(Nc3ccc(-n4cnc(N5CCOCC5)n4)cc3)n2)cc(N2CCOCC2)c1: 41
Cc1ncn(-c2ccc(Nc3nccc(-c4cccc(N5CCOCC5)c4)n3)cc2)n1: 17
Cn1nnc(-c2ccc(Nc3nccc(-c4cc(C#N)cc(N5CCOCC5)c4)n3)cc2)n1: 11

====

Catalogue of log10 of IC50 readings, one per entry.
Target: Mitogen-activated protein kinase 10 (Homo sapiens)
Sequence (P53779 whole entry): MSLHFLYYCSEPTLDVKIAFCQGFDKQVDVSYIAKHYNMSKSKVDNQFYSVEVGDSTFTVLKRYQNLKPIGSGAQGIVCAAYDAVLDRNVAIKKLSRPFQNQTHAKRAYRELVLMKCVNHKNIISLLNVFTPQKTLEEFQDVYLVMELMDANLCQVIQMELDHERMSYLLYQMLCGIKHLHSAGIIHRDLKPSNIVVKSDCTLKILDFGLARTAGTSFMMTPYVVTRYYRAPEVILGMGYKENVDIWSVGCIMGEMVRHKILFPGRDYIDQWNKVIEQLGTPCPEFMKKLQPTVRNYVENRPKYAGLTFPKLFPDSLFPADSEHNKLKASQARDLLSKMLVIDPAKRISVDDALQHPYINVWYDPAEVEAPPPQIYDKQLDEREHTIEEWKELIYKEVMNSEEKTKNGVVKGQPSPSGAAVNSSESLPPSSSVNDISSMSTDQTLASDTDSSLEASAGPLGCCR
Experiment: Inhibition of JNK3 by time resolved fluorescence assay
quantityName: log10 of IC50 (log10 of the value in nM)

Cc1ncn(-c2ccc(Nc3nccc(-c4cc(C#N)cc(N5CCOCC5)c4)n3)cc2)n1: 1.90
Cn1nnc(-c2ccc(Nc3nccc(-c4cc(C#N)cc(N5CCOCC5)c4)n3)cc2)n1: 2.15
Cc1ncn(-c2ccc(Nc3nccc(-c4cccc(N5CCOCC5)c4)n3)cc2)n1: 2.59
N#Cc1cc(-c2ccnc(Nc3ccc(-n4cnc(-c5ccccn5)n4)cc3)n2)cc(N2CCOCC2)c1: 1.90
CN1CCN(c2ncn(-c3ccc(Nc4nccc(-c5cc(F)cc(N6CCOCC6)c5)n4)cc3)n2)CC1: 2.12
c1cc(-c2ccnc(Nc3ccc(-n4ccnn4)cc3)n2)cc(N2CCOCC2)c1: 2.56
CS(=O)(=O)Nc1ccc(-c2ccnc(Nc3ccc(-n4ccnn4)cc3)n2)cc1: 0.60

====

Target: Mitogen-activated protein kinase 8 (Homo sapiens, UniProt P45983)
Sequence (P45983 whole entry): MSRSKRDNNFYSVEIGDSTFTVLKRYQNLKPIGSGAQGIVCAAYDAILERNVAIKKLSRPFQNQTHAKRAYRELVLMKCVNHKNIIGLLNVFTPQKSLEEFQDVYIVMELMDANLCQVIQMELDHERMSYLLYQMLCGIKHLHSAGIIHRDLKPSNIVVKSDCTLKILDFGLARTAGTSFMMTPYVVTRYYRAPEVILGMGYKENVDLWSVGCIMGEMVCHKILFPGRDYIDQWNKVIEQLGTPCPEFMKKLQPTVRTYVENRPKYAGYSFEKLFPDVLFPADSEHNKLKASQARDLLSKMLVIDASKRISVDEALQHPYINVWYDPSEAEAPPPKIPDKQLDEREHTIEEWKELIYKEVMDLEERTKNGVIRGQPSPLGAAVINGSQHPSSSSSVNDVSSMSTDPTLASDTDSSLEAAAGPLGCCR
Assay: Inhibition of JNK1 by time resolved fluorescence assay
pIC50: −log10 of the molar value.
quantityName: pIC50

N#Cc1cc(-c2ccnc(Nc3ccc(-n4cnc(-c5ccccn5)n4)cc3)n2)cc(N2CCOCC2)c1: 7.41
CN1CCN(c2ncn(-c3ccc(Nc4nccc(-c5cc(F)cc(N6CCOCC6)c5)n4)cc3)n2)CC1: 6.99
CS(=O)(=O)Nc1ccc(-c2ccnc(Nc3ccc(-n4ccnn4)cc3)n2)cc1: 7.80
Fc1cc(-c2ccnc(Nc3ccc(-n4cnc(N5CCOCC5)n4)cc3)n2)cc(N2CCOCC2)c1: 7.00
c1cc(-c2ccnc(Nc3ccc(-n4ccnn4)cc3)n2)cc(N2CCOCC2)c1: 6.91
Cc1ncn(-c2ccc(Nc3nccc(-c4cc(C#N)cc(N5CCOCC5)c4)n3)cc2)n1: 7.27
c1cncc(-c2ncn(-c3ccc(Nc4nccc(-c5cccc(N6CCOCC6)c5)n4)cc3)n2)c1: 7.01
Cc1ncn(-c2ccc(Nc3nccc(-c4cccc(N5CCOCC5)c4)n3)cc2)n1: 6.95
Cn1nnc(-c2ccc(Nc3nccc(-c4cc(C#N)cc(N5CCOCC5)c4)n3)cc2)n1: 7.35
